Biological target: F1024-1-3 antibody (monoclonal antibody produced by hybridoma F1024-1-3, Accession No. FERM BP-7511)
Test: competition ELISA: 4-fold diluted serum mixed with 1 µg/mL peroxidase-labeled F1024-1-3, added to immobilised human CD14(1-356)
observation.type: inhibition ratio of binding of F1024-1-3 antibody to human CD14 (%)
Expressed in %, but write only the number.

Answered examples (2):
binder | measurement.unit | endpoint.value
crab-eating macaque soluble type CD14 (in serum) (receptor) TTPEPCELDDEDFRCVCNFSEPHPDWSEAFQCVSAVEVEIRVGGLSLEPFLTRVDPDADPRQYADTIKALRVRRLTVGAAQVPAQLLVGALRVLAYSRLQELTLEDLEITGTMPPLPLEATGLALSSLRLHNVSWATGRSWLAELQQWLKPGLKVLSIAQAHSPAFSCEQVRAFPALTSLDLSDNPGLGERGLIAALCPHKFPALQNLALRNTGMETPTGVCAALAAAGVQPHSLDLSHNSLRATANPSAPRCMWSSALNSLNLSFAGLEQVPKGLPAKLRVLDLSCNRLNRRPRPDELPQVDNLALDGNPFLVPGTALPQEGSMN | % | 57
rabbit soluble type CD14 (in New Zealand white rabbit serum) (receptor, UniProt Q28680 18-342, looked up) STDTPEPCELDDDDIRCVCNFSDPQPDWSSALQCMPAVQVEMWGGGHSLEQFLRQADLYTDQRRYADVVKALRVRRLTVGAVQVPAPLLLGVLRVLGYSRLKELALEDIEVTGTAPPPPPLEATGPALSTLSLRNVSWPKGGAWLSELQQWLKPGLQVLNIAQAHTLAFSCEQVRTFSALTTLDLSENPGLGERGLVAALCPHKFPALQDLALRNAGMKTLQGVCAALAEAGVQPHHLDLSHNSLRADTQRCIWPSALNSLNLSFTGLQQVPKGLPAKLNVLDLSCNKLNRAPQPGELPKVVNLSLDGNPFLVPGASKLQEDLTN | % | 52

Attention now turns to another entry.
Give me measured inhibition ratio of binding of F1024-1-3 antibody to human CD14, please, for this binder: soluble type CD14 purified from human serum (receptor) TTPEPCELDDEDFRCVCNFSEPQPDWSEAFQCVSAVEVEIHAGGLNLEPFLKRVDADADPRQYADTVKALRVRRLTVGAAQVPAQLLVGALRVLAYSRLKELTLEDLKITGTMPPLPLEATGLALSSLRLRNVSWATGRSWLAELQQWLKPGLKVLSIAQAHSPAFSCEQVRAFPALTSLDLSDNPGLGERGLMAALCPHKFPAIQNLALRNTGIETPTGVCAALAAAGVQPHSLDLSHNSLRATVNPSAPRCMWSSALNSLNLSFAGLEQVPKGLPAKLRVLDLSCNRLNRAPQPDELPEVDNLTLDGNPFLVPGTALPHEGSMNSGVVPACARSTLSVGVSGTLVL
83
